system tested: T1, recombinant human IL-6 (human, UniProt P05231 30-212, labeled with radioactive iodine)
T1 construct: Labeled probe in solution, added to wells that carry the synthetic peptides; also called IL-6 ligand; Interleukin-6
assay notes: radioiodinated IL-6 on peptide array; experiment D11-D57
# Counts/minute bound values compiled below
readout: Counts/minute bound (counts/minute)

# binder, readout, measured result
rows = [
    ("GGSLAFGTALCIAIVLRFKKT (alanine-scan variant of the domain IV 21-mer) [Peptide D55]", "Counts/minute bound", 22100),
    ("GGSLAFGTLLCIAIVLRFKAT (alanine-scan variant of the domain IV 21-mer) [Peptide D45]", "Counts/minute bound", 28600),
    ("GGSLAF (also called GGSLAF) [Peptide D26]", "Counts/minute bound", 1050),
    ("GGSLAFGTLLAIAIVLRFKKT (alanine-scan variant of the domain IV 21-mer) [Peptide D53]", "Counts/minute bound", 34900),
]
